MEASUREMENT_DESCRIPTION: Thermodynamic aqueous solubility
CONDITION_LABEL: water, 25 °C, thermodynamic from solid, Solubility, aqueous; crystalline salt prepared from MeCN (300 Vols)
TEST_READOUT: solubility at 24 h (mg/mL)
Answers are plain numbers, in mg/mL.

In: Name the recorded solubility at 24 h of the item CC/C(=C(/c1ccc(/C=C/C(=O)O)cc1)c1ccc2[nH]ncc2c1)c1ccc(F)cc1Cl in your answer.
Out: 10.6
